FYI, the data here is from patent US9216968B2.

Structures can show the parent of a compound that is named as a salt.
IC50 data for UniProt:O14684 follow.
Sequence (O14684 whole entry): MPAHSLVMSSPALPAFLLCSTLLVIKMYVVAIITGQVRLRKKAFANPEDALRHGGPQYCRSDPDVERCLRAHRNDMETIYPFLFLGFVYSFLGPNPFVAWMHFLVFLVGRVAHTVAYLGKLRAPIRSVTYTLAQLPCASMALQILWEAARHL
endpointLabel: IC50

compound | testedOn | observed
COCc1nc2c(C(=O)Nc3cccc(Cl)c3C)cc(NC(=O)c3cc(OCCOC(C)C)ccc3Cl)cc2[nH]1 [Example 114, hydrochloride] | UniProt:O14684 | 3.5 nM
COCc1nc2c(C(=O)Nc3ccc(C)cc3Cl)cc(NC(=O)c3ccccc3C(F)(F)F)cc2[nH]1 [Example 30, hydrochloride] | UniProt:O14684 | 1.8 nM
COCc1nc2c(C(=O)Nc3ccc(C)c(Cl)c3)cc(NC(=O)c3ccccc3C(F)(F)F)cc2[nH]1 [Example 32, hydrochloride] | UniProt:O14684 | 5.2 nM
